Target: KIT D816V kinase activity (KIT autophosphorylation at tyrosine 719) in HMC1.2 cells (Homo sapiens (Human), UniProt P10721, D816V/V560G)
Sequence (P10721 26-976 V560G/D816V): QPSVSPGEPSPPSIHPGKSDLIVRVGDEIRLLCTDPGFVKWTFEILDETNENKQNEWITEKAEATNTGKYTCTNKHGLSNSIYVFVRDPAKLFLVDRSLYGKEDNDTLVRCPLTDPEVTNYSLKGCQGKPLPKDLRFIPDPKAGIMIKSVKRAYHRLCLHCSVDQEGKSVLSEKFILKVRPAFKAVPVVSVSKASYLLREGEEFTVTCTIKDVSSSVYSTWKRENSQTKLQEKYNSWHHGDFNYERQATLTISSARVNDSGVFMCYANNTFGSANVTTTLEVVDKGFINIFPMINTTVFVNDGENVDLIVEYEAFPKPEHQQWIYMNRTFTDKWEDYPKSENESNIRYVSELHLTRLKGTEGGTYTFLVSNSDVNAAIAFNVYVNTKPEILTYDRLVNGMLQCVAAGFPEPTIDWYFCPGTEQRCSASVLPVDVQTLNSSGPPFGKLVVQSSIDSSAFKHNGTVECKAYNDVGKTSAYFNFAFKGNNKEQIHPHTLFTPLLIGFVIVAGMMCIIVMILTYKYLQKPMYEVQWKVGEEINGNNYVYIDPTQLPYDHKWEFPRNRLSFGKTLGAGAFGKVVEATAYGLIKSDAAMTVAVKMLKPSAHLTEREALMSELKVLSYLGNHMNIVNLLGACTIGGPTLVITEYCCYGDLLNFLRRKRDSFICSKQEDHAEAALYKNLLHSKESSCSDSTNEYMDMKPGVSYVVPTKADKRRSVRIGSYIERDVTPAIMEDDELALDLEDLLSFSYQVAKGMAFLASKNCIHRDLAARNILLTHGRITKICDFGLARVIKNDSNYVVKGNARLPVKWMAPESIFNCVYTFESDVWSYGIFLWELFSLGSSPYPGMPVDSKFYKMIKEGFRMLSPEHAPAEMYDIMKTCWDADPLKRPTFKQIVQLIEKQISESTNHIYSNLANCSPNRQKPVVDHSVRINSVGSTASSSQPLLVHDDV
Assay: HMC1.2 autophosphorylation assay (phospho-Y719 c-KIT AlphaLISA)
Settings: HMC1.2 mast cell leukemia cell line (KIT V560G, D816V), 90 minutes compound; read-out: INH-KIT-PHOS-HMC1.2
Property: IC50; scope: individual molecules
REPORTED_METRIC: IC50

Cc1c(-c2cc3c(N4CCN(c5ncc(Cc6ccccc6)cn5)[C@H](C)C4)ncnn3c2)cnn1C = 100 to 1000 nM
Cn1cc(-c2cc3c(N4CCN(c5ncc([C@@H](N)c6ccc(F)cc6)cn5)CC4)ncnn3c2)cn1 = < 50 nM
CCn1cc(-c2cc3c(N4CCN(c5ncc([C@@](C)(N)c6ccccc6)cn5)CC4)ncnn3c2)cn1 = < 50 nM
C[C@@H]1CN(c2ncnn3cc(-c4cnn(C)c4)cc23)CCN1c1ncc([C@](C)(O)c2ccc(F)cc2)cn1 = 50 to 100 nM
Cn1cc(-c2cc3c(N4CCN(c5ncc([C@H](CO)c6ccc(F)cc6)cn5)CC4)ncnn3c2)cn1 = < 50 nM
O[C@@](c1ccc(F)cc1)(c1cnc(N2CCN(c3ncnn4cc(-c5cn[nH]c5)cc34)CC2)nc1)C(F)F = < 50 nM
Cn1cc(-c2cc3c(N4CCN(c5ncc(Sc6ccccc6F)cn5)[C@H](CO)C4)ncnn3c2)cn1 = < 50 nM
Cn1cc(-c2cc3c(N4CCN(c5ncc(C6(c7ccc(F)cc7)COC6)cn5)CC4)ncnn3c2)cn1 = 100 to 1000 nM
Cn1cc(-c2cc3c(N4CCN(c5ncc([C@H](N)c6ccc(F)cc6)cn5)CC4)ncnn3c2)cn1 = < 50 nM
CC[C@](O)(c1ccc(F)cc1)c1cnc(N2CCN(c3ncnn4cc(-c5cnn(C)c5)cc34)CC2)nc1 = 100 to 1000 nM
CCn1cc(-c2cc3c(N4CCN(c5ncc([C@@](C)(N)c6ccc(F)cc6)cn5)CC4)ncnn3c2)cn1 = < 50 nM
Cn1cc(-c2cc3c(N4CCN(c5ncc(Cc6ccc(F)cc6)cn5)CC4)ncnn3c2)cn1 = < 50 nM
Cn1cc(-c2cc3c(N4CCN(c5ncc([C@@](C)(O)c6ccc(F)cc6Cl)cn5)CC4)ncnn3c2)cn1 = < 50 nM
C[C@](N)(c1ccc(F)cc1)c1cnc(N2CCN(c3ncnn4cc(-c5ccc(F)cc5)cc34)CC2)nc1 = 50 to 100 nM
Cn1cc(-c2cc3c(N4CCN(c5ncc([C@@](C)(O)c6ccc(F)cc6)cn5)CC4)ncnn3c2)cn1 = < 50 nM
